EC50 values for the compounds below.
- Test system: CEM cells HIV-1 protection, formazan growth assay
- procedure-text: NCI AIDS Antiviral Assay
Where a SMILES comes first, the peptide text is derived from it. Bridges are numbered along the chain shown (N, C = ends).

compound	EC50
OCC(O)C(OC1OC(CO)C(O)C(O)C1O)C(O)C(/C=N\Nc1ccccc1)=N/Nc1ccccc1 (stereo unspecified)	> 200 µM
CC(C)(C)n1c(=O)n(-c2ccccc2)n(C(C)(C)C)c1=O	> 200 µM
O=C1Oc2ccccc2C(=O)/C1=C/N1C(=O)N/C(=C\c2ccccc2Br)C1=O	> 200 µM
O=[N+]([O-])c1ccc(-n2nnc(C3=NCCN3)c2-c2ccccc2)cc1	> 30.2 µM
Cc1nnc2n(c1=O)CCN2C	> 200 µM
CC(C)(C)C1CCC(=O)C(C(O)CC2CC(=O)N(c3ccccc3)C(=O)C2)C1 (stereo unspecified)	> 200 µM
CCc1cccc(CC)c1NC(=O)C1=C(C)NC(C)=C(C(=O)Nc2c(CC)cccc2CC)C1c1ccc([N+](=O)[O-])cc1	> 44.7 µM
COc1ccc(NC(=O)c2oc3cc(O)ccc3c(=O)c2C)c([N+](=O)[O-])c1	> 676 µM
Cc1ccnc2n[nH]nc12	> 1860 µM
CN[C@@H]1[C@H](O)[C@H](NC)[C@H]2O[C@@]3(O)C(=O)C[C@@H](C)O[C@H]3O[C@@H]2[C@H]1O	> 200 µM
COc1cccc(C2c3cc4c(cc3OC(NNc3ccccc3)C2C)OCO4)c1O (stereo unspecified)	> 200 µM
COC(=O)C1CCC(=O)NCCCCC(NC(=O)C(N)CC(=O)O)C(=O)N1 (stereo not drawn) (H-Asp-Lys-Glu-OMe; lactam 2-3; configuration not given here)	> 200 µM
CN1COc2c(nc(-c3ccccc3)[nH]c2=O)C1	> 1020 µM
O=C1CCCC(=O)N1n1c(Cc2ccc(Cl)cc2)n[nH]c1=O	> 200 µM
COc1ccc2[nH]c3cc4c(=O)c5cc(OC)ccc5[nH]c4cc3c(=O)c2c1	> 72.4 µM
N=c1oc2cc(O)c(O)cc2cc1C(N)=O	> 8.32 µM
O=C1/C(=C/c2ccc([N+](=O)[O-])cc2)Oc2cc(O)ccc21	> 200 µM
O=c1[nH]c2ncsc2c(=O)n1O	> 200 µM
CC1C(=O)N(c2ccccc2)NC12CCCc1ccccc12 (stereo unspecified)	> 200 µM
CC(=O)N(C(C)=O)n1c(Cc2ccc(Cl)cc2)nn(C(C)=O)c1=O	> 200 µM
COc1ccc(/C=C2\NC(=S)NC2=O)cc1	> 200 µM

---

- System: CEM cells HIV-1 protection, formazan growth assay
- procedure-text: NCI AIDS Antiviral Assay
- run-parameters: measured here: growth of uninfected CEM cells
- Procedure: The ability of compounds to protect human CEM cells from HIV-1 infection is measured as a screen for new compounds capable of inhibiting the HIV virus. Five concentrations of drug were tested on uninfected and infected cells and cell growth was measured using a soluble formazan assay. […] Compounds that provided at least 50% protection were retested. Compounds that provided at least 50% protection on retest were listed as moderately active. […]
Assign labels as follows, please: condition met for IC50 below 30 µM; condition not met for IC50 equal to or exceeding 30 µM.

compound	class-assignment
COC(=O)C1=C(C(=O)OC)NC2=C(C=N1)CCC2	condition not met
CC(C)=CCc1ccc2[nH]c3c(c2c1)C(=O)C(=O)C(C)=C3C(O)C(C)O (stereo unspecified)	condition met
C/C(=N\N)C(CN(C)C)C(c1ccccc1)c1c(O)c2ccccc2oc1=O (stereo unspecified)	condition not met
CCN(CC)CCc1nc(-c2ccccc2)no1	condition met
O=C(O)c1nc2ccc(C(F)(F)F)cc2[nH]c1=O	condition not met
C#CC1(O)CCC2C3CCC4=Cc5oncc5CC4(C)C3CCC21C (stereo unspecified)	condition not met
Cc1cccc(CC(C)(C)C)c1NC(=O)C(=O)C(C(=O)c1ccc2ccccc2c1)C1OC(=O)c2ccccc21 (stereo unspecified)	condition not met
CN(C)Cc1cc(C=O)cc(CN(C)C)c1O	condition not met
COC1C=CC23c4cc5c(cc4C(O)OC2CN(C)C3C1)OCO5 (stereo unspecified)	condition met
CCCCCC1CC2=C(C(=O)OC2=O)C(O)C(O)(CCCC)CC2=C1C(=O)OC2=O (stereo unspecified)	condition not met
CCOC(=O)/C=C/c1ccccc1Br	condition not met
CCC(C#N)NCc1ccc(CNC(C#N)CC)cc1 (stereo unspecified)	condition not met
COc1cccc(C2c3cc4c(cc3OC(NNS(=O)(=O)c3ccc(C)cc3)C2C)OCO4)c1O (stereo unspecified)	condition met
O=C(/C=C/c1ccccc1)CC(=O)c1ccccc1.O=C(/C=C/c1ccccc1)CC(=O)c1ccccc1.[Cu]	condition not met
O=C(O)c1ccc(/C=C/c2ccc(N=Nc3c(O)cc(O)cc3C(=O)O)cc2C(=O)O)cc1	condition not met
COc1ccc(C2(CC(C)O)SCCCS2)cc1 (stereo unspecified)	condition not met
CCO/C=N/C1=C(C#N)C(c2ccc(OC)c(OC)c2)c2c(-c3ccccc3)nn(-c3ccccc3)c2O1 (stereo unspecified)	condition met
COc1ccc(C(=C(I)c2ccccc2)c2ccc(OC)cc2)cc1	condition not met
COc1cc(C2SC(N)=Nc3c2c(C)nn3C(=O)Cc2ccccc2)cc(OC)c1OC (stereo unspecified)	condition not met
CN1C(=O)c2c(c3c4ccccc4n(C4OC(CO)C(O)C(O)C4O)c3c3[nH]c4ccccc4c23)C1=O (stereo unspecified)	condition met

---

- System: CEM cells HIV-1 protection, formazan growth assay
- procedure-text: NCI AIDS Antiviral Assay;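 active = compounds giving half or more protection of infected cells from virus-caused growth loss, again on retest; inactive = the rest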
Possible outcomes: active, inactive

compound	class-assignment
S=C(NNc1nc2ccccc2n2cccc12)Nc1ccc(Br)cn1	inactive
O=c1c2cccnc2[nH]c2ccc3scnc3c12	inactive
O=C1Oc2ccccc2C(=O)/C1=C1/C=C(c2ccccc2)SS1	inactive
Cc1ccc(Nc2nc(N)nc(N)c2N=O)cc1C	inactive
C=CCOCC(O)CNCC(O)COCC=C (stereo not drawn)	inactive
Cn1c(=O)c2c(nc3n2CCCC(=O)N3CCCCl)n(C)c1=O	inactive
COc1cc(-c2oc3cc(OC)c(OC)c(OC)c3c(=O)c2OC)cc(OC)c1OC	inactive
CC1(c2ccccc2)OC(=O)c2ccccc21 (stereo not drawn)	inactive
CCOP(=O)(OCC)/C(=C/NC(=S)c1cccnc1)C(=O)OC	inactive
C/C(=N\NC(=S)N(C)C)c1ncc[nH]1	inactive
Nc1nc2c(-c3ccc([N+](=O)[O-])cc3)nnn2c2ccccc12	inactive
O=S(=O)([O-])C(F)(F)F.[Ru+2].[Ru+2].c1ccc2c(c1)Cc1ccccc1-2	inactive
CC(=O)N(C(=O)CC(=O)N1N=C(C)C(N=Nc2cccc([N+](=O)[O-])c2)C1=O)c1ccc(Cl)cc1 (stereo not drawn)	inactive
Nn1c(CCCCCCCCc2nnc(COc3ccc(Cl)cc3)n2N)nnc1COc1ccc(Cl)cc1	inactive
O=C1C(=Cc2ccc(O)cc2)N=C(c2ccccc2)N1n1c(-c2ccccc2)nc2ccccc2c1=O	inactive
COc1ccc2c(OC)c3ccoc3nc2c1O	inactive
CC(=O)Nc1ccc(C(=O)N2N=C(C)/C(=C/c3cccc([N+](=O)[O-])c3)C2=O)cc1	inactive
CCC(C)[C@H](NC(=O)C1CCCN1C[C@H](O)[C@H](Cc1ccccc1)NC(=O)[C@@H](CC(N)=O)NC(=O)OCc1ccccc1)C(=O)N[C@H](Cc1ccccc1)C(=O)NCCCC[C@@H]1NC(=O)[C@H](CC(C)C)N(C)C(=O)[C@H](C(C)C)NC(=O)[C@H](CC(C)C)N(C)C(=O)[C@@H](CO)N(C)C(=O)[C@H](CC)NC(=O)[C@H]([C@H](O)C(C)C)N(C)C(=O)[C@H](C(C)C)N(C)C(=O)[C@H](CC(C)C)N(C)C(=O)[C@H](CC(C)C)N(C)C(=O)[C@@H](C)NC1=O (stereo partly drawn)	active
CCC1(N=[N+]=[N-])C(=O)c2ccccc2N(c2ccccc2)C1=O (stereo not drawn)	inactive
CCn1c2c(c3ccccc31)C(c1ccccc1)CC1C(=O)N(c3ccccc3)C(=O)C21 (stereo not drawn)	inactive
CC1NOC(=O)C1N=Nc1cccc(Cl)c1 (stereo not drawn)	inactive
Cc1ccc(Cl)c(-c2nc3cc(Cl)c(Cl)cc3[nH]2)c1	inactive
NCc1ccccc1-c1c2nc(c(-c3ccccc3CN)c3ccc([nH]3)c(-c3ccccc3CN)c3nc(c(-c4ccccc4CN)c4ccc1[nH]4)C=C3)C=C2	inactive
COc1cc(C(C#N)S(=O)(=O)O)ccc1O (stereo not drawn)	inactive
O=C1CC(CC(O)C2CCCCC2O)CC(=O)N1 (stereo not drawn)	inactive
COc1ccc(OC)c(/C=C/c2ccccc2)c1	inactive
Cc1ccc(C(=O)N(C(C)C)C(C)C)cc1N=NN(C)C	inactive
Cc1cn(C2CC(O[Si](C)(C)C(C)(C)C)C(/C=N\O)O2)c(=O)[nH]c1=O (stereo not drawn)	inactive
Cn1c(=O)c2nc(NCCO)cnc2n(C)c1=O	inactive
S=c1sc2c(n1-c1ccccc1)NC=NC2S (stereo not drawn)	inactive
N#Cc1c(N2CCC(O)C2)c2ccccc2n2c1nc1ccccc12 (stereo not drawn)	inactive
CCCCCC=C1c2ccccc2C=Cc2ccccc21	inactive
CCOP(=O)(OCC)C1=NC=CC=CC1n1c(-c2ccccc2)nn(CC)c1=O (stereo not drawn)	inactive
COC(=O)c1sc(=O)n(-c2ccccc2)c1SCc1ccccc1	inactive
Cc1cc(S(=O)(=O)/N=C(/NN)NNc2cccc(C(F)(F)F)n2)c(S)cc1Cl	inactive
CC1=CC=CC(C)(C)CC1(O[Si](C)(C)C)C(F)(F)F (stereo not drawn)	inactive
CC(C)CCCC(C)[C@H]1CCC2C3C[C@@H](CCC=C(c4cc(Cl)c(O)c(C(=O)O)c4)c4cc(Cl)c(O)c(C(=O)O)c4)[C@H]4CCCC[C@]4(C)C3CC[C@@]21C (stereo partly drawn)	active
C/C(CC(=O)Nc1ccccc1)=N\NC(N)=S	inactive
O=C1c2ccccc2Sc2ccccc2N1CCCCCN1CCN(c2ccc(F)cc2)CC1	inactive
CN=S(=O)(c1ccccc1)C1(C)CC(C)=C(C)CS1=O (stereo not drawn)	inactive
CC(=O)Nc1cc(N=Nc2ccc(N=Nc3ccc(NC(=O)c4ccc(N)cc4)cc3C)cc2C)c(S(=O)(=O)O)cc1N=Nc1ccc(C(=O)O)cc1	active
O=C1/C(=C/c2ccc(OC(=O)c3ccc(Cl)cc3)cc2)CCC/C1=C\c1ccc(OC(=O)c2ccc(Cl)cc2)cc1	inactive
CC1=CC2=C(C(N)=O)C(=O)OC2(C)C(c2ccccc2)C1 (stereo not drawn)	inactive
